- system: T1, CRBN, Q96SW2;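 also: pooled lentiviral library of zinc finger degron-EGFP fusions in mCherry-positive Jurkat cells, FACS-sorted after compound exposure, with degron abundance counted by next-generation sequencing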
- T1 chain: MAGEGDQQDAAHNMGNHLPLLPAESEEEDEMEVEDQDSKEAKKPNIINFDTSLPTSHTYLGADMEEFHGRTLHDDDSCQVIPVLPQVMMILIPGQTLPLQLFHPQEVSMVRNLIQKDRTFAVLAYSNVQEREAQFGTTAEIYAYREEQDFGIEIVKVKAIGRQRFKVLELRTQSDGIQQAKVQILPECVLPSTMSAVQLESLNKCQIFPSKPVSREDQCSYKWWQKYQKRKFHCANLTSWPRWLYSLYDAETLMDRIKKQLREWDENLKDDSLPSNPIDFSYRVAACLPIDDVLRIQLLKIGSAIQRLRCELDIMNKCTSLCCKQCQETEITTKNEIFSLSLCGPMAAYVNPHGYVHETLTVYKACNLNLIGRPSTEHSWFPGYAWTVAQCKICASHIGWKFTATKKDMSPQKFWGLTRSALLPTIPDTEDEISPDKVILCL
- procedure details: log2 fold change of degron read counts, EGFP-low vs EGFP+ sorted cells (limma voom), compound-induced degradation; higher = more compound-induced degradation of the degron-EGFP fusion; degrons are variants of IKZF1/3 zinc finger 2; compound dose not given here
- run parameters: Jurkat; 18 h; compound: compound 22 (5-morpholino-thalidomide)
Whole data set: some 8,300 sequences, median “log2 fold change of degron read counts, EGFP-low vs EGFP+ sorted cells (limma voom), compound-induced degradation” near -1.1, cut for the highest 2% near 3.2. This is one part of a sample in which the highest values are shown more often than they occur.
property name: log2 fold change of degron read counts
I'd appreciate a reply containing only the number, no unit.

LYCEICGFCCTQKGNLLRHIKL [46L_47Y_49E_50I_52G_53F_54C_55C_67L_, Q9UKT9] | 3.28
LDCEICGFCCTQKGNLLRHIKL [46L_47D_49E_50I_52G_53F_54C_55C_67L_, Q9UKT9] | -2.74
FICNVCGAQFTQKGNLLRHIKL [46F_47I_49N_50V_52G_53A_54Q_55F_67L_, Q9UKT9] | 0.393

Tell me the measured log2 fold change of degron read counts of FWCDICGANFTQKGNLLRHIKL [46F_47W_49D_50I_52G_53A_54N_55F_67L_, Q9UKT9] , please.
3.71

Tell me the measured log2 fold change of degron read counts of LFCEICGFCCTQKGNLLRHIKL [46L_47F_49E_50I_52G_53F_54C_55C_67L_, Q9UKT9] , please.
3.39

Tell me the measured log2 fold change of degron read counts of FLCDICGANFTQKGNLLRHIKL [46F_47L_49D_50I_52G_53A_54N_55F_67L_, Q9UKT9] , please.
-1.68

Tell me the measured log2 fold change of degron read counts of LSCEICGFCCTQKGNLLRHIKL [46L_47S_49E_50I_52G_53F_54C_55C_67L_, Q9UKT9] , please.
1.58
